experiment: Half life in human microsomes; type: ADME, Microsome
Could you please mark true (1) for values of half-life below 30 min and false (0) for values at or above it?

# Sample Smiles, Class Assignment
records = [
    ("CCc1nc(-c2ccc(Cl)cc2Cl)c(CC)nc1CC(CC)CC", "true (1)"),
    ("CCC(CC)Nc1nc(C)c(-c2ccc(Cl)cc2Cl)nc1C", "true (1)"),
    ("CCCN(CCN(C)C)c1nc(CC)c(-c2ccc(Cl)cc2Cl)nc1CC", "true (1)"),
    ("CCC(CC)Nc1nc(OC)c(-c2ccc(Cl)cc2Cl)nc1OC", "true (1)"),
    ("CCc1nc(-c2ccc(Cl)cc2Cl)c(C)nc1NC(CC)CC", "true (1)"),
    ("CCc1nc(-c2ccc(OC(F)(F)F)cc2OC)c(CC)nc1NC(CC)CC", "true (1)"),
    ("CCc1nc(NC(CC)CC)c(OC)nc1-c1ccc(OC)cc1C(F)(F)F", "false (0)"),
    ("CCC(CC)Nc1nc(C)c(-c2ccc(OC(F)F)cc2Cl)nc1OC", "false (0)"),
    ("CCc1nc(NC(CC)CC)c(Cl)nc1-c1ccc(Cl)cc1Cl", "true (1)"),
    ("CCc1nc(-c2ccc(Cl)cc2Cl)c(CC)nc1OC(CC)CC", "true (1)"),
    ("CCC(CC)Nc1nc(C)c(-c2ccc(C(F)(F)F)cc2OC)nc1OC", "false (0)"),
]
